Data provenance: ChEMBL document CHEMBL5608261

- System: Naegleria fowleri
- Procedure details: Anti-ameobic activity against Naegleria fowleri Nf69 (ATCC 30215) trophozoites assessed as inhibition of amoeba growth incubated for 48 hrs by CellTiter-Glo assay
- Type: functional, organism-based
- Experimental parameters: Naegleria fowleri, Nf69 (ATCC 30215), 48 h
Binary label based on EC50 with cut-off 700 nM: below gives t, not below gives f.

Look over these answered cases.
CN1CCC[C@H]2c3nc4cc(Cl)ccc4c(=O)n3CC[C@H]21 (racemic)    f
COc1cc2nc3n(c(=O)c2cc1Cl)CC[C@@H]1[C@@H]3CCCN1CCN1CCCC1 (racemic)    f
COc1ccc2nc3n(c(=O)c2c1)CC[C@@H]1[C@@H]3CCCN1C (racemic)    f
COc1cc2nc3n(c(=O)c2cc1Cl)CC[C@@H]1[C@@H]3CCCN1CCOC(C)C (racemic)    t
CN1CCC[C@@H]2c3nc4ccc(C#N)cc4c(=O)n3CC[C@H]21 (racemic)    t
O=c1c2cc(Cl)c(Cl)cc2nc2n1CC[C@@H]1[C@@H]2CCCN1CC1COC1 (racemic)    t
CN1CCC[C@H]2c3nc4ccc(C#N)cc4c(=O)n3CC[C@H]21 (racemic)    f

# next molecule below
In: Please state whether EC50 is below 700 nM for CN1CCC[C@@H]2c3nc4ccccc4c(=O)n3CC[C@H]21 (racemic)
Out: f

----------
- Procedure details: AUCinfinity in female CD-1 mouse at 11 mg/kg, po measured after 12 hrs by LC-MS/MS analysis
- Assay type: ADME, organism-based
- Experimental parameters: in vivo
Observable: AUC
Answer format: number, then unit.

In: Sample `COc1cc2nc3n(c(=O)c2cc1Cl)CC[C@H]1[C@H]3CCCN1CC1COC1` — what was its AUC?
Out: 1920 ng·h/mL

----------
- Procedure details: Protein binding in CD-1 mouse plasma assessed as free fraction incubated for 4 hrs by equilibrium dialysis based LC-MS/MS analysis
- Format: ADME, cell-free
Observable: fraction unbound at 4 h
Please give only the number in your answer, with no unit.

In: State the recorded fraction unbound at 4 h for this entry: `COc1cc2nc3n(c(=O)c2cc1Cl)CC[C@@H]1[C@@H]3CCCN1CC1COC1`
Out: 0.26

----------
- Tested on: Naegleria fowleri
- Procedure details: Anti-ameobic activity against Naegleria fowleri Nf69 (ATCC 30215) trophozoites assessed as inhibition of amoeba growth incubated for 48 hrs by CellTiter-Glo assay
- Assay type: functional, organism-based
- Experimental parameters: Naegleria fowleri, Nf69 (ATCC 30215), 48 h
Observable: pEC50
Please note pEC50 is a logarithmic value: minus log10 of concentration in mol/L. Answer with that number alone.

Solved entries (count: 10):
CN1CCC[C@H]2c3nc4ccc(Cl)cc4c(=O)n3CC[C@@H]21    5.40
COc1cc2nc3n(c(=O)c2cc1Cl)CC[C@@H]1[C@@H]3CCCN1CC1CC1 (racemic)    7.64
O=c1c2cc(Cl)c(Cl)cc2nc2n1CC[C@@H]1[C@@H]2CCCN1CC1CCOCC1 (racemic)    8.15
COc1ccc2c(=O)n3c(nc2c1)[C@@H]1CCCN(C)[C@@H]1CC3 (racemic)    5.74
O=c1c2cc(Cl)c(Cl)cc2nc2n1CC[C@@H]1[C@@H]2CCCN1CCN1CCOCC1 (racemic)    7.96
O=c1c2cc(Cl)c(Cl)cc2nc2n1CC[C@@H]1[C@@H]2CCCN1CC1CC1 (racemic)    8.70
Cc1ccc2nc3n(c(=O)c2c1)CC[C@@H]1[C@H]3CCCN1C (racemic)    5.55
COCCN1CCC[C@@H]2c3nc4cc(Cl)c(Cl)cc4c(=O)n3CC[C@H]21 (racemic)    7.64
CN1CCC[C@H]2c3nc4ccc(C(F)(F)F)cc4c(=O)n3CC[C@@H]21    5.37
O=c1c2cc(Cl)c(Cl)cc2nc2n1CC[C@@H]1[C@@H]2CCCN1Cc1ccccc1 (racemic)    6.14

In: Param readout= pEC50; system= Naegleria fowleri; entry= Cc1ccc2nc3n(c(=O)c2c1)CC[C@@H]1[C@@H]3CCCN1C (racemic) ; returns value.
Out: 5.51

In: Item: CN1CCC[C@@H]2c3nc4cc(-c5ccccc5)c(Cl)cc4c(=O)n3CC[C@H]21 (racemic)
Out: 5.68

In: Then O=c1c2cc(Cl)c(Cl)cc2nc2n1CC[C@@H]1[C@@H]2CCCN1CCO (racemic) ?
Out: 7.70

In: Same read-out for COc1cc2nc3n(c(=O)c2cc1Cl)CC[C@@H]1[C@@H]3CCCN1CCN1CCOCC1 (racemic) ?
Out: 6.28

----------
Overview of recorded CC50 for various compounds
- Tested on: SH-SY5Y
- Procedure details: Cytotoxicity against human SH-SY5Y cells assessed as reduction in cell viability incubated for 72 hrs by CellTiter-Glo assay
- Format: toxicity, cell-based
- Experimental parameters: sh-sy5y, 72 h

CC(C)OCCN1CCC[C@@H]2c3nc4cc(Cl)c(Cl)cc4c(=O)n3CC[C@H]21 (racemic)    > 20 µM
CN1CCC[C@@H]2c3nc4ccc(F)cc4c(=O)n3CC[C@H]21 (racemic)    > 20 µM
O=C(C1CCOCC1)N1CCC[C@@H]2c3nc4cc(Cl)c(Cl)cc4c(=O)n3CC[C@H]21 (racemic)    > 20 µM

In: Give recorded CC50 with SH-SY5Y for the following compound: CN1CCC[C@@H]2c3nc4cc(F)ccc4c(=O)n3CC[C@H]21 (racemic)
Out: > 20 µM

In: Same lookup for CN(C)CCN1CCC[C@@H]2c3nc4cc(Cl)c(Cl)cc4c(=O)n3CC[C@H]21 (racemic) , please.
Out: 8 µM

In: // query: COc1cc2nc3n(c(=O)c2cc1Cl)CC[C@@H]1[C@@H]3CCCN1CC1CCC1 (racemic)
Out: 0.64 µM

In: Then what about the compound CN(C)CC(=O)N1CCC[C@@H]2c3nc4cc(Cl)c(Cl)cc4c(=O)n3CC[C@H]21 (racemic) ?
Out: > 20 µM

In: Now consider CN1CCC[C@@H]2c3nc4cc(Cl)ccc4c(=O)n3CC[C@H]21 (racemic) and answer again.
Out: > 20 µM

In: Note, next up: O=c1c2cc(Cl)c(Cl)cc2nc2n1CC[C@@H]1[C@@H]2CCCN1Cc1ccccc1 (racemic)
Out: > 20 µM

In: Further, for COc1ccc2nc3n(c(=O)c2c1)CC[C@@H]1[C@H]3CCCN1C (racemic) ?
Out: > 20 µM

In: Also need COc1cc2nc3n(c(=O)c2cc1Cl)CC[C@@H]1[C@@H]3CCCN1Cc1cccnc1 (racemic) , thanks.
Out: > 20 µM

In: Do the same for CN1CCC[C@H]2c3nc4ccc(C#N)cc4c(=O)n3CC[C@H]21 (racemic) please
Out: > 20 µM

In: Query COc1cc2nc3n(c(=O)c2cc1Cl)CC[C@@H]1[C@@H]3CCCN1CC1COC1 (racemic) next
Out: 5 µM

In: Same thing, different compound: CN1CCC[C@@H]2c3nc4cc(-c5ccccc5)c(Cl)cc4c(=O)n3CC[C@H]21 (racemic)
Out: 9.4 µM

In: Further, for COc1cc(Cl)cc2c(=O)n3c(nc12)[C@H]1CCCN(C)[C@@H]1CC3 (racemic) ?
Out: > 20 µM

In: Also `COc1cc2nc3n(c(=O)c2cc1Cl)CC[C@@H]1[C@@H]3CCCN1CC(C)C` , if possible.
Out: > 20 µM

In: Can you handle O=c1c2cc(Cl)c(Cl)cc2nc2n1CC[C@@H]1[C@@H]2CCCN1Cc1ccncc1 (racemic) next?
Out: > 20 µM

In: Follow-up entry: `COc1cc2nc3n(c(=O)c2cc1Cl)CC[C@@H]1[C@@H]3CCCN1CC1COC1`
Out: > 20 µM

In: # repeat for COc1cc2nc3n(c(=O)c2cc1Cl)CC[C@@H]1[C@@H]3CCCN1CCOC(C)C (racemic)
Out: 2.5 µM

In: // next record Cc1cccc2nc3n(c(=O)c12)CC[C@@H]1[C@@H]3CCCN1C (racemic)
Out: > 20 µM

----------
- Procedure details: Kinetic solubility of compound at pH 7.4 incubated for 24 hrs by HPLC analysis
- Format: physicochemical
- Experimental parameters: buffer, pH 7.4, 24 h, 24 h
This section presents compounds with their documented Kinetic_solubility values.

Example entries and their recorded answers appear below.
CN1CCC[C@@H]2c3nc4cc(Cl)c(Cl)cc4c(=O)n3CC[C@H]21    98.2 µM
COc1cc2nc3n(c(=O)c2cc1Cl)CC[C@@H]1[C@@H]3CCCN1CC1COC1 (racemic)    198 µM

In: Can you look up the measured Kinetic_solubility of `CN1CCC[C@@H]2c3nc4ccc(C(F)(F)F)cc4c(=O)n3CC[C@H]21` for me?
Out: 109 µM

In: // next record `CN1CCC[C@@H]2c3nc4ccc(Cl)cc4c(=O)n3CC[C@H]21`
Out: 129 µM
